Quick reference: RBA of the listed items.
Target: Mineralocorticoid receptor (Rattus norvegicus) (UniProt P22199)
Sequence (whole entry): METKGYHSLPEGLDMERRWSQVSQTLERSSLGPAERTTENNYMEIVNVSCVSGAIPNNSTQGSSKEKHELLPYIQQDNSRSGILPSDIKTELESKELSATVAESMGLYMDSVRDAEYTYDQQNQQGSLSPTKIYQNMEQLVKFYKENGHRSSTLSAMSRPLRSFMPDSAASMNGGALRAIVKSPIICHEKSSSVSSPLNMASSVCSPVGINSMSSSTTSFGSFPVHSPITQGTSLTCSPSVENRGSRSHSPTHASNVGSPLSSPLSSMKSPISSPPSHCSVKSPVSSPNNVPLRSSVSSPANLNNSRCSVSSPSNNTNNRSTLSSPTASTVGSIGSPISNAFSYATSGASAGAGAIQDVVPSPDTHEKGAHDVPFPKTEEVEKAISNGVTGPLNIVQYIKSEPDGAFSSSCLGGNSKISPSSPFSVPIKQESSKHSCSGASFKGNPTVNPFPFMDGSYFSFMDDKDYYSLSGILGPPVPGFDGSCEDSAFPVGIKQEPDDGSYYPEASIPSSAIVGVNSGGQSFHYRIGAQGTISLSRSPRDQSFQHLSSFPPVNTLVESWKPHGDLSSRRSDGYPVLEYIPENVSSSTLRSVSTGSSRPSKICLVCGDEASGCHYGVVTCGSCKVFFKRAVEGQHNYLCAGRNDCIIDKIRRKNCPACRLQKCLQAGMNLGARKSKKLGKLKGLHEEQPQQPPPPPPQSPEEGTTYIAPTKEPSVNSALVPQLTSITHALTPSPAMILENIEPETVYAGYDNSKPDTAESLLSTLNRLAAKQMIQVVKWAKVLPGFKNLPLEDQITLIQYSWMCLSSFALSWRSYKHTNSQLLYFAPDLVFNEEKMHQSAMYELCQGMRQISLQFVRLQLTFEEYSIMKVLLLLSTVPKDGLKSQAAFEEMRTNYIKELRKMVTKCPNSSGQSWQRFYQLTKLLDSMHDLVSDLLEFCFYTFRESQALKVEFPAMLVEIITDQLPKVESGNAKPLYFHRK
Assay: Relative binding affinity to the rat mineralocorticoid receptor determined in rat renal cytosol using [3]Ald as ligand
Please state the figure in %; there is no need to write the unit.

>  <compound>
CC12C=CC(=O)C=C1C1CC1C1C2C=CC2(C)C1CC[C@@]21CCC(=O)O1 (some centres undefined)

>  <test_system>
Mineralocorticoid receptor (Rattus norvegicus) (UniProt P22199)

>  <RBA [%]>
300

$$$$
>  <compound>
C[C@]12CCC(=O)C=C1C=C[C@@H]1[C@@H]2CC[C@@]2(C)[C@H]1CC[C@@]21CCC(=O)O1

>  <test_system>
Mineralocorticoid receptor (Rattus norvegicus) (UniProt P22199)

>  <RBA [%]>
2.9

$$$$
>  <compound>
CC(=O)S[C@@H]1CC2=CC(=O)CC[C@]2(C)[C@H]2CC[C@@]3(C)[C@@H](CC[C@@]34CCC(=O)O4)[C@H]12

>  <test_system>
Mineralocorticoid receptor (Rattus norvegicus) (UniProt P22199)

>  <RBA [%]>
15

$$$$

Next compound, please.
Prompt: Query the reported RBA for Mineralocorticoid receptor (Rattus norvegicus) (UniProt P22199); item: CC(=O)S[C@@H]1CC2=CC(=O)CCC2(C)C2C=CC3(C)C(CC[C@@]34CCC(=O)O4)C21 (some centres undefined)
Response: 169
